# Tested on: EC-1, mouse virulent strain of Escherichia coli
# Format: cell-based
# condition.details: E. coli EC-1; overnight incubation, lower of duplicate values; trifluoroacetate salt (Example 1 and PMB sulfate)
Bridge positions count the residues as written; N and C are the ends. Square brackets hold non-standard residues; d marks the D form. Peptide text beside a SMILES is read from it. * marks the point of attachment. X7 = O=C(c1ccnc(-c2ccccc2F)c1)*; Dab = NCC[C@H](N)C(=O)O; Dap = NC[C@H](N)C(=O)O
assay.endpoint: EC-1 MIC (µg/mL)
One number for each entry, in µg/mL.

Consider the molecule shown here: CC(C)C[C@@H]1NC(=O)[C@@H](Cc2ccccc2)NC(=O)[C@H](CCN)NC(=O)[C@@H](NC(=O)[C@H](CN)NC(=O)[C@@H](NC(=O)[C@H](CCN)NC(=O)c2ccnc(-c3ccccc3F)c2)[C@@H](C)O)CCNC(=O)[C@H]([C@@H](C)O)NC(=O)[C@H](CCN)NC(=O)[C@H](CCN)NC1=O [Example 5] (X7-[Dab]T[Dap][Dab][Dab][dF]L[Dab][Dab]T; lactam 4-C) What is its recorded EC-1 MIC?
0.125
